Biological target: Neuromedin-K receptor (Homo sapiens, UniProt P29371)
Sequence (P29371 whole entry): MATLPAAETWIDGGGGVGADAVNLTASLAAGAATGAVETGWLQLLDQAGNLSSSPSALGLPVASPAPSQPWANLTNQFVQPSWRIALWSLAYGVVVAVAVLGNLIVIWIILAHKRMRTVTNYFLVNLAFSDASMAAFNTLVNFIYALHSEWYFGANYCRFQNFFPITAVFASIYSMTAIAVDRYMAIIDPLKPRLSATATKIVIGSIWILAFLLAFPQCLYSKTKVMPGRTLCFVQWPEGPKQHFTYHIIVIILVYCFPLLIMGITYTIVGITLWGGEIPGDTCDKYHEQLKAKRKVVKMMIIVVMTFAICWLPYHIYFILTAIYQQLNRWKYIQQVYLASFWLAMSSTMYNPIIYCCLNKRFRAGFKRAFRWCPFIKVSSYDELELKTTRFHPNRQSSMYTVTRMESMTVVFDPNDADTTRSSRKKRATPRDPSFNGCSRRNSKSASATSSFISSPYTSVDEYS
Test: Agonist activity at human NK3R expressed in CHO cells assessed as potentiation of senktide-induced effect
Type: cell-based
*1 amine or outer side, *2 acyl side, *3 side chain or, on linkers, in order; H or OH if unused. Where a SMILES comes first, the peptide text is derived from it. [ ]: non-standard residue; d: D form. Glyψ(E-CHCH)Leu = CC(C)C[C@H](/C=C/CN[*:1])C(=O)[*:2]; X4 = CC(C)C[C@H](N/C(CN[*:1])=N\O)C(=O)[*:2]; X3 = CC(C)C[C@H](NC(=N)CN[*:1])C(=O)[*:2]; X1 = CC(C)C[C@H](CCCN[*:1])C(=O)[*:2]; X2 = CC(C)C/C(=C\CCN[*:1])C(=O)[*:2]; NMeF = CN[C@@H](Cc1ccccc1)C(=O)O; Suc = O=C(CCC(=O)[*:2])[*:1]
metric: log10 EC50 (log10 of the value in nM)

>  <compound>
CSCC[C@H](NC(=O)/C(=C/CCNC(=O)[C@H](Cc1ccccc1)N(C)C(=O)[C@H](Cc1ccccc1)NC(=O)[C@H](CC(=O)O)NC(=O)CCC(=O)O)CC(C)C)C(N)=O (Suc-DF[NMeF][X2]M-NH2)

>  <tested on>
Neuromedin-K receptor (Homo sapiens, UniProt P29371)

>  <metric>
log10 EC50

>  <reading>
3.28

$$$$
>  <compound>
CSCC[C@H](NC(=O)[C@@H](CCCNC(=O)[C@H](Cc1ccccc1)N(C)C(=O)[C@H](Cc1ccccc1)NC(=O)[C@H](CC(=O)O)NC(=O)CCC(=O)O)CC(C)C)C(N)=O (Suc-DF[NMeF][X1]M-NH2)

>  <tested on>
Neuromedin-K receptor (Homo sapiens, UniProt P29371)

>  <metric>
log10 EC50

>  <reading>
2.96

$$$$
>  <compound>
CSCC[C@H](NC(=O)[C@@H](/C=C/CNC(=O)[C@H](Cc1ccccc1)N(C)C(=O)[C@H](Cc1ccccc1)NC(=O)[C@H](CC(=O)O)NC(=O)CCC(=O)O)CC(C)C)C(N)=O (Suc-DF[NMeF][Glyψ(E-CHCH)Leu]M-NH2)

>  <tested on>
Neuromedin-K receptor (Homo sapiens, UniProt P29371)

>  <metric>
log10 EC50

>  <reading>
1.20

$$$$
>  <compound>
CSCC[C@H](NC(=O)[C@H](CC(C)C)N/C(CNC(=O)[C@H](Cc1ccccc1)N(C)C(=O)[C@H](Cc1ccccc1)NC(=O)[C@H](CC(=O)O)NC(=O)CCC(=O)O)=N\O)C(N)=O (Suc-DF[NMeF][X4]M-NH2)

>  <tested on>
Neuromedin-K receptor (Homo sapiens, UniProt P29371)

>  <metric>
log10 EC50

>  <reading>
2.57

$$$$
>  <compound>
CSCC[C@H](NC(=O)[C@H](CC(C)C)NC(=N)CNC(=O)[C@H](Cc1ccccc1)N(C)C(=O)[C@H](Cc1ccccc1)NC(=O)[C@H](CC(=O)O)NC(=O)CCC(=O)O)C(N)=O (Suc-DF[NMeF][X3]M-NH2)

>  <tested on>
Neuromedin-K receptor (Homo sapiens, UniProt P29371)

>  <metric>
log10 EC50

>  <reading>
2.00

$$$$

###

Target: Neuromedin-K receptor (Homo sapiens, UniProt P29371)
Sequence (P29371 whole entry): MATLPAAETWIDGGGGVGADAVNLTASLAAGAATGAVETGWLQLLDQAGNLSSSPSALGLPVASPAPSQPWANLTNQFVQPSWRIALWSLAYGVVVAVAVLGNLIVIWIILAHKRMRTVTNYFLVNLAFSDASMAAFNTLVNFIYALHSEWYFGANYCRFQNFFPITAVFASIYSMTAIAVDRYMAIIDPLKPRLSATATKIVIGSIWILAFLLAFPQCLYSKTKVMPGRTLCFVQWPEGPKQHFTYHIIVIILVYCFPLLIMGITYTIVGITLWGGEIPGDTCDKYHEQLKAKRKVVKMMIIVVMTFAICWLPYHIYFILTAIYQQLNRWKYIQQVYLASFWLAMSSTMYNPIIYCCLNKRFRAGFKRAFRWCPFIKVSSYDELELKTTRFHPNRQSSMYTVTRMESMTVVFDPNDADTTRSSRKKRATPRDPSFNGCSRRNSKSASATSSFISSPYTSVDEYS
Test: Displacement of [125I]His3, MePhe7 from human NK3R expressed in CHO cell membranes by scintillation counting
*1 amine or outer side, *2 acyl side, *3 side chain or, on linkers, in order; H or OH if unused. Where a SMILES comes first, the peptide text is derived from it. [ ]: non-standard residue; d: D form. X3 = CC(C)C[C@H](NC(=N)CN[*:1])C(=O)[*:2]; X2 = CC(C)C/C(=C\CCN[*:1])C(=O)[*:2]; NMeF = CN[C@@H](Cc1ccccc1)C(=O)O; Suc = O=C(CCC(=O)[*:2])[*:1]
Below, each entry is listed alongside its reported IC50.
metric: IC50 (nM)

>  <molecule>
CSCC[C@H](NC(=O)[C@H](CC(C)C)NC(=O)CNC(=O)[C@H](Cc1ccccc1)N(C)C(=O)[C@H](Cc1ccccc1)NC(=O)[C@H](Cc1ccccc1)NC(=O)[C@@H](N)CC(=O)O)C(N)=O (H-DFF[NMeF]GLM-NH2)

>  <metric>
IC50

>  <reading>
59

$$$$
>  <molecule>
CSCC[C@H](NC(=O)[C@H](CC(C)C)NC(=O)CNC(=O)[C@H](Cc1ccccc1)N(C)C(=O)[C@H](Cc1ccccc1)NC(=O)[C@@H](N)Cc1ccccc1)C(N)=O (H-FF[NMeF]GLM-NH2)

>  <metric>
IC50

>  <reading>
2900

$$$$
>  <molecule>
CSCC[C@H](NC(=O)[C@H](CC(C)C)NC(=N)CNC(=O)[C@H](Cc1ccccc1)N(C)C(=O)[C@H](Cc1ccccc1)NC(=O)[C@H](CC(=O)O)NC(=O)CCC(=O)O)C(N)=O (Suc-DF[NMeF][X3]M-NH2)

>  <metric>
IC50

>  <reading>
360

$$$$
>  <molecule>
CSCC[C@H](NC(=O)/C(=C/CCNC(=O)[C@H](Cc1ccccc1)N(C)C(=O)[C@H](Cc1ccccc1)NC(=O)[C@H](CC(=O)O)NC(=O)CCC(=O)O)CC(C)C)C(N)=O (Suc-DF[NMeF][X2]M-NH2)

>  <metric>
IC50

>  <reading>
13000

$$$$
>  <molecule>
CSCC[C@H](NC(=O)[C@H](CC(C)C)NC(=O)CNC(=O)[C@H](Cc1ccccc1)N(C)C(=O)[C@H](Cc1ccccc1)NC(=O)[C@H](Cc1ccccc1)NC(=O)[C@H](CC(=O)O)NC(=O)[C@@H](N)Cc1cnc[nH]1)C(N)=O (H-HDFF[NMeF]GLM-NH2)

>  <metric>
IC50

>  <reading>
43

$$$$
>  <molecule>
CSCC[C@H](NC(=O)[C@H](CC(C)C)NC(=O)CNC(=O)[C@H](Cc1ccccc1)N(C)C(=O)[C@H](Cc1ccccc1)NC(=O)[C@H](Cc1ccccc1)NC(=O)[C@H](CC(=O)O)NC(=O)[C@H](Cc1cnc[nH]1)NC(=O)[C@H](CCSC)NC(=O)[C@@H](N)CC(=O)O)C(N)=O (H-DMHDFF[NMeF]GLM-NH2)

>  <metric>
IC50

>  <reading>
12

$$$$
>  <molecule>
CSCC[C@H](NC(=O)[C@H](CC(C)C)NC(=O)CNC(=O)[C@H](Cc1ccccc1)N(C)C(=O)[C@@H](N)Cc1ccccc1)C(N)=O (H-F[NMeF]GLM-NH2)

>  <metric>
IC50

>  <reading>
2300

$$$$

###

biological target: UniProt P25103; experiment: Displacement of [125I]-BH-SP from human NK1R expressed in CHO cell membranes at 10 uM by scintillation counting
Sequence (P25103 whole entry): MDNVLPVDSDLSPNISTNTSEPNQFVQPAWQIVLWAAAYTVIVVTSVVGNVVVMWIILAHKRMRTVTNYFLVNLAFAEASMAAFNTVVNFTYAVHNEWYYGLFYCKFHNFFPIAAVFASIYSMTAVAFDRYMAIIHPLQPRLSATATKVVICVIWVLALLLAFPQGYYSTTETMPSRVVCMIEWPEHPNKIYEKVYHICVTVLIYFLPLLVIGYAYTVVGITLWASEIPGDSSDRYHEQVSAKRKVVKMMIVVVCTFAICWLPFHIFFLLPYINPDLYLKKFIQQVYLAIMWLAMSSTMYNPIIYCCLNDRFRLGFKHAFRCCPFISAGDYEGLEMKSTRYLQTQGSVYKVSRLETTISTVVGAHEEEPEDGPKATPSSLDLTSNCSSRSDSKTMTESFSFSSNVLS
Where a SMILES comes first, the peptide text is derived from it. [ ]: non-standard residue; d: D form. NMeF = CN[C@@H](Cc1ccccc1)C(=O)O
metric: inhibition (%)

>  <compound>
CSCC[C@H](NC(=O)[C@H](CC(C)C)NC(=O)CNC(=O)[C@H](Cc1ccccc1)N(C)C(=O)[C@H](Cc1ccccc1)NC(=O)[C@@H](N)Cc1ccccc1)C(N)=O (H-FF[NMeF]GLM-NH2)

>  <reading>
49

$$$$
>  <compound>
CSCC[C@H](NC(=O)[C@H](CC(C)C)NC(=O)CNC(=O)[C@H](Cc1ccccc1)N(C)C(=O)[C@@H](N)Cc1ccccc1)C(N)=O (H-F[NMeF]GLM-NH2)

>  <reading>
70

$$$$
>  <compound>
CSCC[C@H](NC(=O)[C@H](CC(C)C)NC(=O)CNC(=O)[C@H](Cc1ccccc1)N(C)C(=O)[C@H](Cc1ccccc1)NC(=O)[C@H](Cc1ccccc1)NC(=O)[C@H](CC(=O)O)NC(=O)[C@@H](N)Cc1cnc[nH]1)C(N)=O (H-HDFF[NMeF]GLM-NH2)

>  <reading>
18

$$$$

These data points were gathered from ChEMBL document CHEMBL3352625.
